# assayed target: human mGluR4 (Homo sapiens, UniProt Q14833)
# Sequence (Q14833 33-912): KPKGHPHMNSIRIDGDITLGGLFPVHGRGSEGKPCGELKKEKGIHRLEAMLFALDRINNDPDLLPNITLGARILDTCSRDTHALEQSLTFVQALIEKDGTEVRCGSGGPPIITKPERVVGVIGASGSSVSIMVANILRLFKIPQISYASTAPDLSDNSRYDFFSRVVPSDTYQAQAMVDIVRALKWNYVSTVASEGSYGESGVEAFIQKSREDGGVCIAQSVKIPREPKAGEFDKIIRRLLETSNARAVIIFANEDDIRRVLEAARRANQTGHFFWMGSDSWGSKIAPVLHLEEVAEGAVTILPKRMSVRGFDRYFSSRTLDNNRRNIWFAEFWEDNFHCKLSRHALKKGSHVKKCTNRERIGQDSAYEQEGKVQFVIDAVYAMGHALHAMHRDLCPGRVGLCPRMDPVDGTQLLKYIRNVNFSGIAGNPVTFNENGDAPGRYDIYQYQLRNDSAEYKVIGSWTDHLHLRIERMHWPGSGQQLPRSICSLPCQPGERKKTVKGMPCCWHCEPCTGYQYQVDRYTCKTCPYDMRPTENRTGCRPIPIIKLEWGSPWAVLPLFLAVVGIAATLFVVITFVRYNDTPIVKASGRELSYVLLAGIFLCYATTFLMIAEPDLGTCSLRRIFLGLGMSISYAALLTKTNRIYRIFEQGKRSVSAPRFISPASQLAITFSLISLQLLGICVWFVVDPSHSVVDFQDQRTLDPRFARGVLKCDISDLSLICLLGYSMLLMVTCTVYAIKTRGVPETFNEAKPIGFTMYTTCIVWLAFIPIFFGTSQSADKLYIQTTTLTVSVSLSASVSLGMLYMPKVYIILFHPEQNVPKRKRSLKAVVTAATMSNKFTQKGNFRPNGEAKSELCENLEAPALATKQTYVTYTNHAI
# experimental protocol: human mGluR4 potentiation assay, CHO cells, Fluo-4 calcium fluorescence, agonist EC20
# conditions: potentiation of human mGluR4 response to EC20 agonist; read-out: hEC50
# Excerpt: The disclosed compounds and compositions can be evaluated for their ability to act as a potentiator of metabotropic glutamate receptor activity, in particular mGluR4 activity, by any suitable known methodology known in the art. […] The cells were loaded with either the Ca2+-sensitive fluorescent dye Fluo-4 or the thallium responsive dye BTC, AM and the plates were washed and placed into a suitable kinetic plate reader. […]
Counter-ions that a name gives are not always drawn.
readout kind: EC50 (nM)

Some compounds with known EC50 results, for comparison:
- O=S(=O)(Nc1ccccc1Cl)c1ccc2[nH]c(-c3ncccc3F)nc2c1: 747
- CN(c1ccccc1F)S(=O)(=O)c1ccc2[nH]c(-c3ccccn3)nc2c1: 1110
- Cc1ccc(-c2nc3cc(S(=O)(=O)Nc4ccccc4Cl)ccc3[nH]2)o1: 76
- N#Cc1ccc(NS(=O)(=O)c2ccc3[nH]c(-c4ccccc4)nc3c2)cc1 [Example 19, TFA salt]: 4900
- Cc1cc(-c2nc3cc(S(=O)(=O)Nc4ccccc4Cl)ccc3[nH]2)on1: 1980
- CC1CCN(S(=O)(=O)c2ccc3[nH]c(-c4ccccn4)nc3c2)CC1: 7450

a. O=S(=O)(Nc1c(F)cccc1F)c1ccc2[nH]c(-c3ccccc3)nc2c1
b. Cn1ccnc1-c1nc2cc(S(=O)(=O)Nc3ccccc3Cl)ccc2[nH]1
c. O=S(=O)(Nc1ccccc1Cl)c1ccc2[nH]c(C3CCCCO3)nc2c1 (stereo not shown)
// ranking: key=EC50, reverse=True Rank them, then answer with their labels in that order.
b, c, a

I. O=S(=O)(Nc1ccccc1Cl)c1ccc2[nH]c(-c3cscn3)nc2c1 [Example 10, bis TFA salt]
II. O=S(=O)(Nc1ccccc1Cl)c1ccc2[nH]c(-c3nccs3)nc2c1
III. O=S(=O)(Nc1ccccc1Cl)c1ccc2[nH]c(-c3cccnn3)nc2c1 [Example 8, TFA salt]
// ranking: key=EC50, reverse=True Rank them, then answer with their labels in that order.
III, II, I

I. O=S(=O)(Nc1ccccc1Cl)c1ccc2[nH]c(-c3ccsc3)nc2c1
II. O=S(=O)(Nc1ccccc1Cl)c1ccc2[nH]c(-c3ccno3)nc2c1
// pick min by EC50: I , II Which one? Tell me its label.
I

1. CCc1ccc(NS(=O)(=O)c2ccc3[nH]c(-c4ccsc4)nc3c2)cc1
2. O=S(=O)(Nc1ccccc1F)c1ccc2[nH]c(-c3ccccn3)nc2c1
// pick min by EC50: 1 , 2 Which one? Tell me its label.
2
(2: 186 nM, 1: 313 nM)
